# subjectOfTest: p300 (Homo sapiens)
# Construct: purchased Reaction Biology Corporation, Malvern, PA, USA
# Sequence (Q09472 1284-1673): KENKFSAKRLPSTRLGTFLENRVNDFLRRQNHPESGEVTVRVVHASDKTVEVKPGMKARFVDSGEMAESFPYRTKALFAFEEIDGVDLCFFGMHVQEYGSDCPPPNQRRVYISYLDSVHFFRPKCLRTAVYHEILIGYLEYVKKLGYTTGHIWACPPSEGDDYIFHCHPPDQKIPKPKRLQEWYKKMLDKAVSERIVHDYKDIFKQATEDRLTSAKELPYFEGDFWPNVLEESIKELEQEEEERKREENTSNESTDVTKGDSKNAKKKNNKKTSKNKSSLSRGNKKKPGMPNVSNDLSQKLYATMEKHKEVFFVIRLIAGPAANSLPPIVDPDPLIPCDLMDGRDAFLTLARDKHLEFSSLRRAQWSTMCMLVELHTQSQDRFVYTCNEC
# experimentalProtocol: HotSpot KAT assay
# Assay type: biochemical
# details: 100 µM; means ± SD of three experiments; read-out: Residual Enzymatic Activity (%) p300
metric: remaining activity at 100 µM (%)
Answer with a number only, understood to be in %.

Consider the worked cases shown below.
molecule	unitSpec	remaining activity at 100 µM
O=C(O)c1cnc(SCCCc2ccccc2)[nH]c1=O [compound 10]	%	97.9
CCCCCCCCCSc1ncc(C(=O)O)c(=O)[nH]1 [compound 5]	%	106
CCCCCSc1ncc(C(=O)O)c(=O)[nH]1 [compound 4]	%	97.7
O=C(O)c1c[nH]c(=S)[nH]c1=O [compound 1]	%	98.7
O=C(O)c1cnc(SCC2CCCCC2)[nH]c1=O [compound 6]	%	104

For reference, reported remaining activity at 100 µM for CSc1ncc(C(=O)O)c(=O)[nH]1 [compound 2] stands at 97.8

remaining activity at 100 µM measured on O=C(O)/C=C\Sc1ncc(C(=O)O)c(=O)[nH]1 [compound 13] = 107

Lab book: remaining activity at 100 µM of CCOC(=O)/C=C\Sc1ncc(C(=O)O)c(=O)[nH]1 [compound 12] noted as 104
